assay: Permeability coefficient of compound by lipid-PAMPA assay; format: ADME; conditions: read-out: Peff
QUANTITY_MEASURED: Papp (×10⁻⁶ cm/s)

{"columns": ["MOLECULE", "Papp (×10⁻⁶ cm/s)"],
 "data": [
  ["O=C(CCl)N1CCN(Cc2ccccc2)C12COC2", 23.4]
]}

(a) O=C(CBr)N1CCN(Cc2ccccc2)C12COC2
(b) COc1cc(C(=O)/C=C/c2ccc(C(=O)N3CCN(Cc4ccccc4)C34COC4)cc2)cc(OC)c1OC
Data request: Just curious, which one has the larger Papp reading, a or b ? Provide the label of your selected option as the answer.
Data returned: a
